Target: UniProt:O75907
Sequence (O75907 whole entry): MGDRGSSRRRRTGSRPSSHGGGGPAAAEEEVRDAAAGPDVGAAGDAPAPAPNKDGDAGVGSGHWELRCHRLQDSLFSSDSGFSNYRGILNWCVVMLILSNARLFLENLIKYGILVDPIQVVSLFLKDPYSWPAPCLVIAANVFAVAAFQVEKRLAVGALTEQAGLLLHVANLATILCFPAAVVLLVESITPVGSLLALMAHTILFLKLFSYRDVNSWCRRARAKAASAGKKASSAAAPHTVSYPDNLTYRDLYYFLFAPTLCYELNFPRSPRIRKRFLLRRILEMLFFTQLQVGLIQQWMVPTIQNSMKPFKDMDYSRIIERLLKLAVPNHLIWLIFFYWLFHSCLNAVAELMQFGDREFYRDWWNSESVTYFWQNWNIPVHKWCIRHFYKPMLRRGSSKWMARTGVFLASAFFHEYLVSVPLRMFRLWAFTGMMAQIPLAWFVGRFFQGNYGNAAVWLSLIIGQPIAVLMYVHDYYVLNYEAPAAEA
VALUE TYPE: IC50

Examples from the recorded data:
O=C(O)CC1CCC(c2ccc(-c3ccc4nc(C(=O)NCc5c(F)cccc5Cl)cn4c3)cc2)CC1 (stereo not given) on UniProt:O75907 gives IC50 = < 10 nM

Item: O=C(O)C[C@H]1CC[C@H](c2ccc(-c3cn4cc(C(=O)NCc5c(F)cccc5Cl)nc4s3)cc2)CC1 | System: UniProt:O75907 | IC50: < 10 nM

UniProt:O75907 IC50 of O=C(O)C[C@H]1CC[C@H](c2ccc(-c3cn4cc(C(=O)NCc5c(F)cccc5F)nc4s3)cc2)CC1 is < 25 nM

Summary: O=C(O)C[C@H]1CC[C@H](c2ccc(-c3cn4cc(C(=O)NCc5ccc(OC(F)(F)F)c(Cl)c5)nc4s3)cc2)CC1 , UniProt:O75907, IC50 = < 225 nM

Next:
Reading of IC50 for O=C(O)C[C@H]1CC[C@H](c2ccc(-c3cn4cc(C(=O)NCc5c(F)cc(Cl)cc5F)nc4s3)cc2)CC1 with UniProt:O75907: < 10 nM
